Assay: Pharmacokinetic behavior in mice (plasma concentration by LC-MS/MS)
Type: in vivo
Settings: mouse, plasma; male ICR mice, Intravenous injection (1 mg/kg)
measured_parameter: AUC(0-t) (ng·h/mL)
Please state the figure in ng·h/mL; there is no need to write the unit.

Completed entries (count: 2):
• COc1cc2nn([C@H]3CC[C@H](CCN4CCC5(CC4)OCc4cc(C6CCC(=O)NC6=O)ccc45)CC3)cc2cc1C(=O)Nc1cccc(C(F)(F)F)n1 (stereo partly drawn) = 2060
• CC(C)(O)c1cc2nn([C@H]3CC[C@H](CCN4CCN5c6c(F)cc(C7CCC(=O)NC7=O)cc6OCC5C4)CC3)cc2cc1NC(=O)c1cccc(C(F)(F)F)n1 (stereo partly drawn) = 10500

Let's switch to this compound now.
Give the measured AUC(0-t) of CC(C)(O)c1cc2nn([C@H]3CC[C@H](CCN4CCC5(CC4)OC(=O)c4cc(C6CCC(=O)NC6=O)ccc45)CC3)cc2cc1NC(=O)c1cccc(C(F)(F)F)n1 (stereo partly drawn) .
6210

Source listed as patent EP4696691A1.
